# study system: 15-hydroxyprostaglandin dehydrogenase [NAD(+)] (Homo sapiens, UniProt P15428)
# Sequence (P15428 whole entry): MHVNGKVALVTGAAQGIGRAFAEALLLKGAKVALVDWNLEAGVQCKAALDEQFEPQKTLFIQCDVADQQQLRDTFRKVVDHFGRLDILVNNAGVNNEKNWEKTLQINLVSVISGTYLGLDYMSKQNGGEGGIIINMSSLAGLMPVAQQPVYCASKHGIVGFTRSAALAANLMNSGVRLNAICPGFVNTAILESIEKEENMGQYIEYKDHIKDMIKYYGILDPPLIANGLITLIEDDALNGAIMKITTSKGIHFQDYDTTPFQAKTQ
Threshold check on IC50: strictly below 6 nM is yes; on or above 6 nM is no.

1. CN1C=NC2C=C(N3CC4CC4C4C=C(C(=O)N5CCC(F)(F)CC5)C=CC43)C=NC2C1=O (stereo unspecified)
yes
2. CN1CC2=CC(N3CC4CC4C4C=C(C(=O)N5CCC(F)(F)CC5)C=NC43)CN=C2C1=O (stereo unspecified)
yes
3. Cn1nc2cc(N3CC4CC4C4C=C(C(=O)N5CCCC(C(F)(F)F)C5)C=NC43)ccn2c1=O (stereo unspecified)
no
4. CN1NC2C=C(N3C[C@H]4C[C@@H]4C4C=C(C(=O)N5CCC(F)(F)CC5)C=NC43)C=CN2C1=O (stereo partly specified)
yes
5. [2H]C([2H])([2H])N1NC2C=C(N3C[C@H]4C[C@@H]4C4C=C(C(=O)N5CCC(F)(F)CC5)C=NC43)C=CN2C1=O (stereo partly specified) [US20250034134, Compound I-25B]
yes

====

pIC50, 15-hydroxyprostaglandin dehydrogenase [NAD(+)] (Homo sapiens, UniProt P15428): measured values
pIC50: −log10 of the molar value.
assay metric: pIC50

1) CN1NC2C=C(N3CC4CC4C4C=C(C(=O)N5CCCC(F)(F)C5)C=NC43)C=CN2C1=O (stereo not drawn)
8.37
2) Cn1ccc2c(c1=O)=CCC(N1C[C@H]3C[C@@H]3C3C=C(C(=O)N4CCC(F)(F)CC4)C=NC31)C=2 (stereo partly drawn) [US20250034134, Compound I-12B]
8.13
3) Cn1ccc2c(c1=O)=CCC(N1C[C@@H]3C[C@@H]3C3C=C(C(=O)N4CCC(F)(F)CC4)C=NC31)C=2 (stereo partly drawn) [US20250034134, Compound I-12A]
8.82
